# Method summary: qHTS assay to identify small molecule antagonists of the TGF-beta/Smad signaling pathway - cell viability counter screen (AID 1346824); also: nearly all actives have a fitted effect of over 50% in size
# Experimental parameters: SBE-bla HEK293T viability, CellTiter-Glo luminescence; series mostly up to 76.8 µM
# Excerpt: U.S. Tox21 Program National Center for Advancing Translational Sciences [NCATS] NIH Chemical Genomics Center [NCGC] U.S. Environmental Protection Agency [EPA] National Institutes of Environmental Health Sciences [NIEHS] National Toxicology Program [NTP] U.S. Food and Drug Administration [FDA] […]
Inconclusive results are not listed. The source made the active and inactive calls. Calls follow the shape of the dose curve; as a rule, active = well fitted cell-killing curve with a large enough effect in the repeat runs; inconclusive = weak or mixed curves; inactive = flat fitted curve, though single readings scatter.
Result category, one only: active, inactive

- Compound: "Cc1c(C)c2c(c(C)c1O)CCC(C)(COc1ccc(CC3SC(=O)NC3=O)cc1)O2 (stereo not given)"
  Group: "inactive"

Q: What is the recorded call for this compound in the test? `COc1ccc(C(=O)/C(Br)=C\C(=O)O)cc1`
Ans: inactive

Q: Do the same for `CCCCCCCCCCn1cc[n+](CCCCCCCCCC)c1C` please
Ans: active

Q: Do the same for `CNCc1cc(F)ccc1Oc1ccc(Cl)c(Cl)c1` please
Ans: inactive

Q: Do the same for `CCCCCOc1ccccc1/C(=C\SC)n1ccnc1` please
Ans: inactive

Q: Do the same for O=C(OCC1CO1)C1CCCCC1C(=O)OCC1CO1 (stereo not given) please
Ans: inactive

Q: Do the same for `O=C(Oc1cccc2cccnc12)c1ccccc1` please
Ans: inactive

Q: Do the same for `CCCCCCCCOc1ccccc1C(=O)Nc1ccc(C(=O)OCC[N+](C)(CC)CC)cc1` please
Ans: inactive

Q: Do the same for `COc1cc(-c2ccc(N=C=O)c(OC)c2)ccc1N=C=O` please
Ans: inactive

Q: Do the same for `Cc1cc(O)c(C(C)(C)C)cc1Sc1cc(C(C)(C)C)c(O)cc1C` please
Ans: active
